target: ScCyk3; test: SPOT peptide array binding signal intensity (averaged, normalized) (arbitrary units (background-subtracted, floor 0; scale differs between SH3 domains)); higher = stronger binding of the SH3 domain to the peptide
Quick rule for you: SPOT peptide array binding signal intensity at 10 or higher means satisfied, lower means not satisfied.

Please review the following examples before continuing.
- BINDER: "GSKSGPPPRPKKPST"
  ANSWER LABEL: "not satisfied"
- BINDER: "SSAAPPPPPRRATPE"
  ANSWER LABEL: "not satisfied"
- BINDER: "FYNRTAFQLPGDARV"
  ANSWER LABEL: "satisfied"
- BINDER: "NGRRRPKFRVQLSGN"
  ANSWER LABEL: "satisfied"

[ask] Textbook exercise: given the entry `MAMRPIPPLPTESEY` , state whether its SPOT peptide array binding signal intensity is greater than or equal to 10.
[reply] not satisfied

[ask] Textbook exercise: given the entry `LRWRHKFFLPAIAAI` , state whether its SPOT peptide array binding signal intensity is greater than or equal to 10.
[reply] satisfied
